Values were extracted from the supplement of paper PMC8671470.

Tested on: KCL-22
Conditions: 72 h
Where a name gives a salt, the structure may show the parent alone.
# IC50 (cell viability) per entry
assayReadout: IC50 (cell viability) (µM)

compound: Cc1[nH]nc(C(F)(F)F)c1Cc1sc2c(c1C(=O)N1C[C@](C)(O)CO1)c(=O)n(C)c(=O)n2C(C)C
modifierSign: >
observedValue: 10
--
compound: CCCCCN(C)CCC(O)(P(=O)(O)O)P(=O)(O)O [Ibandronate]
modifierSign: >
observedValue: 10
--
compound: Cc1nc(-c2ccccc2)sc1C(=O)Nc1ccc(S(N)(=O)=O)cc1
modifierSign: >
observedValue: 10
--
compound: O=C(NCCN1CCC(n2c(O)nc3ccccc32)CC1)c1cc2cc(F)ccc2[nH]1
modifierSign: >
observedValue: 10
--
compound: C[C@H]1c2cccc(O)c2C(=O)C2C(=O)[C@]3(O)C(=O)C(C(N)=O)C(=O)[C@@H](N(C)C)[C@@H]3[C@@H](O)[C@@H]21 (some centres not stated)
modifierSign: =
observedValue: 8.54
--
compound: COC(=O)c1cc2c(C(F)(F)F)cc(-c3ccccc3)cc2n1O
modifierSign: >
observedValue: 10
--
compound: CS(=O)(=O)N1CCN(Cc2cc3nc(-c4cccc5[nH]ncc45)nc(N4CCOCC4)c3s2)CC1
modifierSign: >
observedValue: 10
--
compound: Cc1ccc(-c2cc(C(F)(F)F)nn2-c2ccc(S(N)(=O)=O)cc2)cc1
modifierSign: >
observedValue: 10
--
compound: CC(C)CC(=O)N[C@H](C(=O)N[C@H](C(=O)N[C@@H](CC(C)C)[C@@H](O)CC(=O)N[C@@H](C)C(=O)N[C@@H](CC(C)C)[C@@H](O)CC(=O)O)C(C)C)C(C)C
modifierSign: >
observedValue: 10
--
compound: CCN(CCO)CCCC(C)Nc1ccnc2cc(Cl)ccc12 (configuration not stated) [Hydroxychloroquine sulfate]
modifierSign: >
observedValue: 10
--
compound: CC(C)(C)c1ccc(S(=O)(=O)NCc2ccc(C(=O)Nc3cccnc3)cc2)cc1
modifierSign: =
observedValue: 0.437
--
compound: OC[C@H]1O[C@@H](n2cnc3c2N=CNC[C@H]3O)C[C@@H]1O
modifierSign: >
observedValue: 10
--
compound: O=C(/C=C/c1ccc(O)c(O)c1)OCCc1ccccc1
modifierSign: =
observedValue: 2.21
--
compound: C=CC(=O)c1ccc(O)cc1
modifierSign: =
observedValue: 6.68
--
compound: c1cc(-c2cnn3cc(-c4ccc(OCCN5CCCCC5)cc4)cnc23)ccn1
modifierSign: =
observedValue: 6.79
--
compound: CC(=O)Nc1nc(C)c(-c2ccc(Cl)c(S(=O)(=O)NCCO)c2)s1
modifierSign: =
observedValue: 1.12
--
compound: CN1CCN(CCCN2c3ccccc3Sc3ccc(C(F)(F)F)cc32)CC1
modifierSign: =
observedValue: 3.49

====

# cell viability per entry
System: HL-60
Assay: cell viability (% survival relative to DMSO control); higher = less cytotoxic
Conditions: 0.001 µM; 72 h; co-treatment: pictilisib 100 nM

molecule: C=CCN(C)CCCCCCOc1ccc(C(=O)c2ccc(Br)cc2)c(F)c1.O=C(O)/C=C/C(=O)O [Ro 48-8071 fumarate]
unit: %
cell viability: 113

molecule: CC(=O)Nc1nc(C)c(-c2ccc(Cl)c(S(=O)(=O)NCCO)c2)s1
unit: %
cell viability: 102

molecule: Cc1cc2c(C(C)C)c(O)c(O)c(C=O)c2c(O)c1-c1c(C)cc2c(C(C)C)c(O)c(O)c(C=O)c2c1O
unit: %
cell viability: 104

molecule: CCc1c(C(=O)C(N)=O)c2c(OCC(=O)O)cccc2n1Cc1ccccc1
unit: %
cell viability: 103

molecule: CCCCCCCC/C=C\CCCCCCCC(=O)Nc1ccccc1 [Octadec-9-Enoic Acid Phenylamide]
unit: %
cell viability: 98.2

molecule: CC/C=C\C[C@H]1C(=O)CC[C@@H]1CC(=O)OC [methyl jasmonate]
unit: %
cell viability: 96.6

molecule: C=CC(=O)c1ccc(O)cc1
unit: %
cell viability: 108

molecule: CN1CCN(CCCN2c3ccccc3Sc3ccc(C(F)(F)F)cc32)CC1
unit: %
cell viability: 97

molecule: Cc1nc(-c2ccccc2)sc1C(=O)Nc1ccc(S(N)(=O)=O)cc1
unit: %
cell viability: 101

====

Test system: THP-1
Assay: cell viability (% survival relative to DMSO control, bortezomib = 0%); higher = less cytotoxic
Settings: 10 nM; 72 h
assayReadout: cell viability

molSmiles: N#Cc1ccc(N(Cc2ccc(Br)cc2)n2cnnc2)cc1
assayReadout: cell viability
observedValue: 103%
--
molSmiles: Cc1cc2c(C(C)C)c(O)c(O)c(C=O)c2c(O)c1-c1c(C)cc2c(C(C)C)c(O)c(O)c(C=O)c2c1O
assayReadout: cell viability
observedValue: 90.3%
--
molSmiles: CCCCCOC(=O)Nc1nc(=O)n([C@@H]2O[C@H](C)[C@@H](O)[C@H]2O)cc1F
assayReadout: cell viability
observedValue: 100%
--
molSmiles: O=C1C(SCCO)=C(SCCO)C(=O)c2ccccc21
assayReadout: cell viability
observedValue: 98.2%
--
molSmiles: O=C(Nc1ccccc1)c1cc([N+](=O)[O-])ccc1Cl
assayReadout: cell viability
observedValue: 101%
--
molSmiles: Cc1[nH]nc(C(F)(F)F)c1Cc1sc2c(c1C(=O)N1C[C@](C)(O)CO1)c(=O)n(C)c(=O)n2C(C)C
assayReadout: cell viability
observedValue: 104%
--
molSmiles: CCN(CC)C(=S)SSC(=S)N(CC)CC
assayReadout: cell viability
observedValue: 95.6%
--
molSmiles: CCc1c(C(=O)C(N)=O)c2c(OCC(=O)O)cccc2n1Cc1ccccc1
assayReadout: cell viability
observedValue: 105%
--
molSmiles: CCc1oc2ccccc2c1C(=O)c1cc(Br)c(O)c(Br)c1
assayReadout: cell viability
observedValue: 95.7%
--
molSmiles: c1cc(-c2cnn3cc(-c4ccc(OCCN5CCCCC5)cc4)cnc23)ccn1
assayReadout: cell viability
observedValue: 101%

====

System: HL-60
Experiment: area under dose-response curve (viability, 1 nM-10 uM) (fraction (0-1)); higher = more sensitive
Conditions: 72 h; co-treatment: pictilisib 100 nM
Counter-ions that a name gives are not always drawn.

compound: CC(C)(C)c1ccc(S(=O)(=O)NCc2ccc(C(=O)Nc3cccnc3)cc2)cc1 [STF-31]
area under dose-response curve: 0.324
//
compound: CC[C@H](C)[C@H](N)C(=O)N1CCSC1 [P32/98]
area under dose-response curve: < 0.0301
//
compound: Cc1ccc(-c2cc(C(F)(F)F)nn2-c2ccc(S(N)(=O)=O)cc2)cc1 [Celecoxib]
area under dose-response curve: < 0.0301
//
compound: Cc1c(Cl)cccc1S(=O)(=O)Nc1nc(CC(=O)N2CCN(C)CC2)cs1 [BVT-2733]
area under dose-response curve: < 0.0301
//
compound: C[C@]12C=CC(=O)C=C1CC[C@@H]1[C@@H]2[C@@H](O)C[C@@]2(C)[C@H]1CC[C@]2(O)C(=O)CO [Prednisolone]
area under dose-response curve: < 0.0301
//
compound: N#Cc1ccnc(N2C(=O)CC[C@H]2C(=O)N(c2cncc(F)c2)[C@H](C(=O)NC2CC(F)(F)C2)c2ccccc2Cl)c1 [AG-120]
area under dose-response curve: < 0.0301
//
compound: COC(=O)c1cc2c(C(F)(F)F)cc(-c3ccccc3)cc2n1O [NHI-2]
area under dose-response curve: < 0.0301
//
compound: CCN(CCO)CCCC(C)Nc1ccnc2cc(Cl)ccc12 (stereo unspecified) [Hydroxychloroquine sulfate]
area under dose-response curve: < 0.0301
//
compound: CCCCCCCC/C=C\CCCCCCCC(=O)Nc1ccccc1 [Octadec-9-Enoic Acid Phenylamide]
area under dose-response curve: < 0.0301
//
compound: Cc1cccc(Nc2cc(Cl)nc(SCC(=O)O)n2)c1C [Pirinixic acid]
area under dose-response curve: < 0.0301
//
compound: CO[C@H]1C[C@@H]2CC[C@@H](C)[C@@](O)(O2)C(=O)C(=O)N2CCCC[C@H]2C(=O)O[C@H]([C@H](C)C[C@@H]2CC[C@@H](OCCO)[C@H](OC)C2)CC(=O)[C@H](C)/C=C(\C)[C@@H](O)[C@@H](OC)C(=O)[C@H](C)C[C@H](C)/C=C/C=C/C=C/1C [Everolimus]
area under dose-response curve: < 0.0301
//
compound: O=c1cc(N2CCOCC2)oc2c(-c3ccccc3)cccc12
area under dose-response curve: 0.058
//
compound: CN(CCOc1ccc(Cc2sc(O)nc2O)cc1)c1ccccn1 [Rosiglitazone]
area under dose-response curve: < 0.0301
//
compound: Cc1cc(CS(=O)(=O)c2ccccc2)cc(OCc2ccc(CN3CCC[C@@H]3CO)cc2)c1 [PF 543 hydrochloride]
area under dose-response curve: < 0.0301
//
compound: O=C(O)CC[N+](=O)[O-] [3-nitropropionic acid]
area under dose-response curve: < 0.0301
//
compound: CC(=O)Nc1nc(C)c(-c2ccc(Cl)c(S(=O)(=O)NCCO)c2)s1 [PIK93]
area under dose-response curve: 0.181
